What hERG Inhibition (%) @ 20 μM was measured for each of the following?
Biological target: hERG channel (Homo sapiens)
Construct: host or cells: hERG-T-Rex 293 (HEK 293), doxycycline-induced
Sequence (Q12809 whole entry): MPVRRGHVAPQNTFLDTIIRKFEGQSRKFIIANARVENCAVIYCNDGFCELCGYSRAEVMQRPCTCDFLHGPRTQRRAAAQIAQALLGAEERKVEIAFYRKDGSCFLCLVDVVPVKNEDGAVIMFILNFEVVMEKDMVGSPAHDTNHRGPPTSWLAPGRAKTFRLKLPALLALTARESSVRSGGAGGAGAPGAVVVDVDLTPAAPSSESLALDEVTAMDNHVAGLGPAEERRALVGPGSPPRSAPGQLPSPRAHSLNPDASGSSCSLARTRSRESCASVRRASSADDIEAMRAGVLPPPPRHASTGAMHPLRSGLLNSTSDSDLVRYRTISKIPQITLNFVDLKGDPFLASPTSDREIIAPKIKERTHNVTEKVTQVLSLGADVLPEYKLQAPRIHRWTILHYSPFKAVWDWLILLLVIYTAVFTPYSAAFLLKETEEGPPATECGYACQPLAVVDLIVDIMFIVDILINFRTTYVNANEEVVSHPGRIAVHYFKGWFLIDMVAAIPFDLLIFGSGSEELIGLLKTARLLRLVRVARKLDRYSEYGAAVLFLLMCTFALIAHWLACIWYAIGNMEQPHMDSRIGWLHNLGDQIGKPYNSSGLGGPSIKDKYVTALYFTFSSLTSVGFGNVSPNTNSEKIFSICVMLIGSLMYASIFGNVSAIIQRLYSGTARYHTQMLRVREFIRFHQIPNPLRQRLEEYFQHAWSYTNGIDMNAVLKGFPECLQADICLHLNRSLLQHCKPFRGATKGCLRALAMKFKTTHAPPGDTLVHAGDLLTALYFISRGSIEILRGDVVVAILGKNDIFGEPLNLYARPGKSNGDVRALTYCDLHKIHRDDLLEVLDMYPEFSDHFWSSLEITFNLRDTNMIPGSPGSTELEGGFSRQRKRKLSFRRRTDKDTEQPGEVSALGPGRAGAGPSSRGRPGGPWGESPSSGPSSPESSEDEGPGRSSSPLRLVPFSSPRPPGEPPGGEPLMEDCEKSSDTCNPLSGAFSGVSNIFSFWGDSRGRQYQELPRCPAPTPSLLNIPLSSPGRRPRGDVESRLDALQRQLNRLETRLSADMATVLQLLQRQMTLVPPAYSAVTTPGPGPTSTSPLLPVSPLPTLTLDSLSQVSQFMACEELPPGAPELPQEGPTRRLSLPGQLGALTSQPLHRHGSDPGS
Assay: hERG Safety Evaluation by Manual Patch-Clamp System
Format: cell-based
Settings: 20 μM; hERG-T-Rex 293 cells; whole cell patch-clamp at 35° C.
Kindly provide the numeric value in % only, without the unit symbol.

Query: Would you please give the reported hERG Inhibition (%) @ 20 μM of C[C@@H](C(=O)Nc1cn(Cc2ccc(F)cc2F)cn1)N1CCC(F)(F)[C@@H](c2cc[n+]([O-])cc2)C1 (single isomer, unassigned) with hERG channel (Homo sapiens)?
Response: 35

Query: Would you please give the reported hERG Inhibition (%) @ 20 μM of C[C@@H](C(=O)Nc1cn2c(n1)CC[C@@H]2c1cc(F)cc(F)c1)N1CCC(F)(F)[C@@H](c2cc[n+]([O-])cc2)C1 (single isomer, unassigned) with hERG channel (Homo sapiens)?
Response: 47

Query: Would you please give the reported hERG Inhibition (%) @ 20 μM of C[C@@H](C(=O)Nc1cn2c(n1)CC[C@H]2c1cc(F)cc(F)c1)N1CCC(F)(F)[C@@H](c2ccc(=O)[nH]c2)C1 (single isomer, unassigned) with hERG channel (Homo sapiens)?
Response: 54

Query: Would you please give the reported hERG Inhibition (%) @ 20 μM of C[C@@H](C(=O)Nc1nc2cc3c(cc2s1)OCO3)N1CCC(F)(F)[C@@H](c2cc[n+]([O-])cc2)C1 (single isomer, unassigned) with hERG channel (Homo sapiens)?
Response: 62

Query: Would you please give the reported hERG Inhibition (%) @ 20 μM of C[C@H](C(=O)Nc1cn(Cc2cc(F)cc(F)c2)cn1)N1CCC(F)(F)[C@@H](c2cc[n+]([O-])cc2)C1 (single isomer, unassigned) with hERG channel (Homo sapiens)?
Response: 35

----------
What IC50 was measured for each of the following?
System: LAD-2 cells
Assay: LAD2 Degranulation Assay (Protocol 2), β-hexosaminidase release
Assay type: cell-based
Conditions: Homo sapiens, 0.5 μM Cortistatin-14, 2 h preincubation, cells without SCF 18-24 hours, top concentration 3 μM
Kindly provide the numeric value in nM only, without the unit symbol.

Query: # return recorded IC50 for entry C[C@@H](C(=O)Nc1cc2n(n1)CC[C@@H]2c1cc(F)cc(F)c1)N1CCC(F)(F)[C@@H](c2ccc(=O)[nH]c2)C1 (single isomer, unassigned)
Response: 0.81

Query: # return recorded IC50 for entry C[C@@H](C(=O)Nc1cn2c(n1)CC[C@@H]2c1cc(F)cc(F)c1)N1CCC(F)(F)[C@@H](c2cc[n+]([O-])cc2)C1 (single isomer, unassigned)
Response: 9.5

Query: # return recorded IC50 for entry C[C@H](C(=O)Nc1cn(Cc2cc(F)cc(F)c2)c(C(F)F)n1)N1CCC(F)(F)[C@@H](c2cc[n+]([O-])cc2)C1 (single isomer, unassigned)
Response: 12

Query: # return recorded IC50 for entry C[C@@H](C(=O)Nc1cn2c(n1)CC[C@H]2c1cc(F)cc(F)c1)N1CCC(F)(F)[C@@H](c2ccc(=O)[nH]c2)C1 (single isomer, unassigned)
Response: 6.9

Query: # return recorded IC50 for entry C[C@@H](C(=O)Nc1cn2c(n1)CC[C@H]2c1cc(F)ccc1F)N1CCC(F)(F)[C@@H](c2ccc(=O)[nH]c2)C1 (single isomer, unassigned)
Response: 31

Query: # return recorded IC50 for entry C[C@H](C(=O)Nc1cn2c(n1)CC[C@@H]2c1cc(F)cc(F)c1)N1CCCCC1 (single isomer, unassigned)
Response: 79

Query: # return recorded IC50 for entry C[C@@H](C(=O)Nc1cc2n(n1)CC[C@H]2c1cc(F)cc(F)c1)N1CCC(F)(F)[C@@H](c2ccc(=O)[nH]c2)C1 (single isomer, unassigned)
Response: 614

Query: # return recorded IC50 for entry C[C@@H](C(=O)Nc1cn2c(n1)CC[C@H]2c1ccc(F)cc1F)N1CCC(F)(F)[C@@H](c2ccc(=O)[nH]c2)C1 (single isomer, unassigned)
Response: 30

Query: # return recorded IC50 for entry C[C@@H](C(=O)Nc1cn(Cc2cc(F)cc(F)c2)c(C(F)F)n1)N1CCC(F)(F)[C@@H](c2c[nH]c(=O)c(CO)c2)C1 (single isomer, unassigned)
Response: 34
